Biological target: T1, 송아지 혈청 알부민(BSA) (bovine (printed: 송아지 혈청 알부민), UniProt P02769 25-607)
T1 construct: also called bovine serum albumin
T1 sequence (P02769 25-607 limits assumed): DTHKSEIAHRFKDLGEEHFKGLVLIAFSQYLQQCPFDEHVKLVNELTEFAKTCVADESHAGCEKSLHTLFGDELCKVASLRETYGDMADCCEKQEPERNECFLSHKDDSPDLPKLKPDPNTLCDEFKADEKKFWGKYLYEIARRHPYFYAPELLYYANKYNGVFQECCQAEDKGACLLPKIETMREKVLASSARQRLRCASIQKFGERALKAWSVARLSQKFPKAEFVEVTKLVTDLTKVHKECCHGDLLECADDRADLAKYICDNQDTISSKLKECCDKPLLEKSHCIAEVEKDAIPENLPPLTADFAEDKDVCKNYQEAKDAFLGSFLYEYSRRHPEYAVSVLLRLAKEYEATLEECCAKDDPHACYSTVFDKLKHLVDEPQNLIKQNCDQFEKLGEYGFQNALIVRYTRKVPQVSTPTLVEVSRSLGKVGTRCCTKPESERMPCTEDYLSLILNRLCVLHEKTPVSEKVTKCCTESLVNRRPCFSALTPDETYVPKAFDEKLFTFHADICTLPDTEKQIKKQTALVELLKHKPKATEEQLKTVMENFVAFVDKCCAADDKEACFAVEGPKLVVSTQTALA
Assay: phage ELISA, 1% BSA coated, anti-M13-peroxidase, absorbance 492 nm

[
  {
    "binder": "SC06-089 (scFv, single-chain phage antibody: the scFv stood on phage in the ELISA) scFv: EVQLVETGGGLVQPGGSLRLSCAASGFTFSSYSMNWVRQAPGKGLEWVSFISSSSSTIYYADSVKGRFTIARDNAKNSLYLQMNSLRDEDTAVYYCARPVGTGISLFHAFDIWGQGTMVTVSSGTGGSGGTGSGTGGSTQSVLTQPPSVSVAPGQTARITCGGNNIGSKYVHWYQQKPGQAPVLVVYDDSDRPSGIPERFSGSNSGNTATLTISRVEAGDEADFYCQVWDGSSDPVVFGGGTKLTVL",
    "binding result": "no binding"
  },
  {
    "binder": "SC05-159 (scFv, single-chain phage antibody: the scFv stood on phage in the ELISA) scFv: QVQLVQSGAEVKKPGATVKISCKVSGYTFTDYYMHWVQQAPGKGLEWMGLVDPEDGETIYAEKFQGRVTITADTSTDTAYMELSSLRSDDTAVYYCARAEVMTTINNWYFDLWGRGTLVTVSSGTGGSGGTGSGTGGSTSYVLTQPPSASGTPGQRVTISCSGSSSNIGSNNVSWYQQLPGTAPKLLIYSNNQRPSGVPDRFSGSKSGTSASLAISGLQSEDEADYYCAAWDDSLNGWVFGGGTKLTVL",
    "binding result": "no binding"
  },
  {
    "binder": "SC05-179 (scFv, single-chain phage antibody: the scFv stood on phage in the ELISA) scFv: EVQLVESGGGLVKPGGSLGLSCAASGFFFSDYSMSWIRQAPGKGLEWLSNISGSGHSTKYAESMRGRITISRDNAKKSLSLQLNSLRAEDTAVYFCVRGGGYRMDVWGQGTTVTVSSGTGGSGGTGSGTGGSTQSALTQPRSVPGSPGQSVTISCTGTSSDVGGYNYVSWYQQHPGKAPKLMIYDVSKRPSGVPDRFSGSKSGNTASLTVSGLQAEDEADYYCSSYAGSNNFVVFGGGTKLTVL",
    "binding result": "no binding"
  }
]
